- Assay Explanation: viability of uninfected HEp-2 cells – cell-based, HTS, cytotoxicity control for RSV inhibitor project, dose response (AID 2410)
- Format: functional
- Experimental Setup: human respiratory syncytial virus
The source made the active and inactive calls.
Property: CC50

Look over these answered cases.
[[record]]
compound = "O=S(=O)(Cc1ccccc1)N1CCC(c2nc(O)c3nnn(Cc4cccc(Cl)c4)c3n2)CC1"
assay_value = "48.9 µM (active)"

[[record]]
compound = "COc1cccc2sc3ccc(C#CC4(O)CCCCC4)cc3c(=O)c12"
assay_value = "13.9 µM (active)"

[[record]]
compound = "Cc1ccc(N2C(=O)NC(=O)/C(=C\\C=C\\c3ccco3)C2=O)cc1C"
assay_value = "> 50 µM (active)"

[[record]]
compound = "C[C@@]12C(=O)N(c3cccc(F)c3)C(=O)N1[C@H](c1ccc(Cl)cc1)[C@@H]1C(=O)N(C3CCCCC3)C(=O)[C@@H]12"
assay_value = "38.5 µM (active)"

[[record]]
compound = "O=C(O)c1ccccc1Nc1ccc(OC(F)F)cc1"
assay_value = "23.8 µM (active)"


// next entry
Given item COc1ccc(-n2c(Cc3cccc([N+](=O)[O-])c3)nc3ccccc3c2=O)cc1 , the value recorded as its CC50 is > 50 µM (active)

---

- System: UniProt:P33261
- Assay Explanation: Cytochrome panel assay with activity outcomes. Panel member name: p450-cyp2c19 Compounds with AC50 equal or less than 10 uM are considered active
- Assay type: functional
- Experimental Setup: read-out: AC50
Property: AC50

[[record]]
compound = "COc1cc(C)ccc1OCCOc1cc(C)ccc1Cl"
assay_value = "5.62 µM (inconclusive)"

[[record]]
compound = "O=c1c(CCc2ccccc2)nc2cncnc2n1C1CC1"
assay_value = "39.8 µM (inconclusive)"

[[record]]
compound = "Cc1ccc(Cn2cnc3c(nnn3Cc3ccc(Cl)cc3)c2=O)cc1"
assay_value = "4.47 µM (inconclusive)"

[[record]]
compound = "NC1=NC(Nc2ccc(F)cc2F)=NC2(CCCCC2)N1"
assay_value = "3.16 µM (inconclusive)"

[[record]]
compound = "C/C(CCN1CCc2nc(-c3ccccc3)c(-c3ccccc3)cc2C1)=N\\O[C@@H](C)c1cc(-c2c(C)cc(C)cc2C)no1"
assay_value = "0.00631 µM (inconclusive)"

[[record]]
compound = "CN(C)c1ccc(-c2nccc(NCCN3CCOCC3)n2)cc1"
assay_value = "15.8 µM (inconclusive)"


Given item Cc1ccc(OCC(=O)NNC(=O)C2CCN(c3ncccn3)CC2)cc1 , the value recorded as its AC50 is 0.501 µM (inconclusive)

Given item O=S(=O)(c1cccc(-c2nnc(-c3ccc(Br)cc3)o2)c1)N1CCCCCC1 , the value recorded as its AC50 is 11.2 µM (inconclusive)

Given item CC(C)(C)CC(=O)NC(=S)N1CCCCCC1 , the value recorded as its AC50 is 39.8 µM (inconclusive)

Given item O=C(CCNC(=O)c1ccc(Br)o1)NCc1ccccn1 , the value recorded as its AC50 is 17.8 µM (inconclusive)

Given item CN(C)C(=O)c1ccc(-c2ccc3ncnc(Nc4ccc(F)cc4)c3c2)cc1 , the value recorded as its AC50 is 25.1 µM (inconclusive)

---

- System: Alkaline phosphatase, tissue-nonspecific isozyme (Homo sapiens, UniProt P05186)
- Assay Explanation: activation of tissue-nonspecific alkaline phosphatase – biochemical, TNAP isozyme, human IAP uHTS hits, selectivity assay for human IAP activator project, dose response (AID 488886);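 note: potency of compounds raising TNAP activity as a selectivity check on IAP activators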
- Format: functional
Active and inactive are the calls of the source.
Your reply should match one of these outcome classes. active, inactive

Task item: Can you look up the reported call for O=C(N/N=C/c1c(F)cccc1Cl)c1cc(C2CC2)[nH]n1 for me?
Reply: active

Task item: Can you look up the reported call for O=C(NC(=S)NNC(=O)c1ccccc1O)c1ccc(F)cc1 for me?
Reply: active

Task item: Can you look up the reported call for COc1ccccc1N(C)S(=O)(=O)c1ccc(Cl)c(C(=O)NNC(=O)c2ccccc2O)c1 for me?
Reply: active

Task item: Can you look up the reported call for O=C(N/N=C/c1ccc(O)cc1O)C(=O)N/N=C/c1ccc(O)cc1O for me?
Reply: inactive
